target or system: T1, human PD-1 expressed on cells (human, UniProt Q15116 25-288)
T1 construct: whole, on cells
T1 sequence (Q15116 25-288): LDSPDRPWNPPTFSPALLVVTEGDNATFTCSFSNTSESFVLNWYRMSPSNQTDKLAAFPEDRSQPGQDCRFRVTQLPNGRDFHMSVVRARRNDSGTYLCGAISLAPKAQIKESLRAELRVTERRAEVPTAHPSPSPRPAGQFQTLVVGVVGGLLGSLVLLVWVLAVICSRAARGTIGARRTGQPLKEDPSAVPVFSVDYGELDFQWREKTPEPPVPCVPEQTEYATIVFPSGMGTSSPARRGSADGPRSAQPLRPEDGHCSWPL
assay procedure: flow cytometry, hPD1-293 cells
endpoint label: EC50 (nM)
Give just the numeric value; nM need not be written.

binder	unit	EC50
33C4 (antibody, V domains shown, also called 780_39) VH: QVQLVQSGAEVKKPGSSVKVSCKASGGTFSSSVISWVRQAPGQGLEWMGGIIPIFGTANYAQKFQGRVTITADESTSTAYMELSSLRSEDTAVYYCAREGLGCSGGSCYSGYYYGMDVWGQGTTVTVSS VL: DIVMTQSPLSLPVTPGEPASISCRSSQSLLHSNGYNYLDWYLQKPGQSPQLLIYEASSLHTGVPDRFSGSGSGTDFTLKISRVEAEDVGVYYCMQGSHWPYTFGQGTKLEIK	nM	0.075
38B2 (antibody, V domains shown, 24H9 derivative, IgG; also called 780_54; hPD1 Ab (38B2)) VH: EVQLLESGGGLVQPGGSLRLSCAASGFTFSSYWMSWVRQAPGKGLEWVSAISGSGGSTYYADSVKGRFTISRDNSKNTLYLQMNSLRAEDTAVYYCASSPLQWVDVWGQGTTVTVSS VL: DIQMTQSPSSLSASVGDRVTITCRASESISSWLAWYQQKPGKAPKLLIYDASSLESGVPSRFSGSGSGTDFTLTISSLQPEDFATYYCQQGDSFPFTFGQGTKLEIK	nM	0.12
31B1 (antibody, V domains shown, also called 780_38; 33B1 and 31B2 (apparent misprints)) VH: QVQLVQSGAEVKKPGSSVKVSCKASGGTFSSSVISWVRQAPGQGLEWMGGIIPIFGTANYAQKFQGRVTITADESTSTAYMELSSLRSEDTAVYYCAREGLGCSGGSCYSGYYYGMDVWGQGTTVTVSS VL: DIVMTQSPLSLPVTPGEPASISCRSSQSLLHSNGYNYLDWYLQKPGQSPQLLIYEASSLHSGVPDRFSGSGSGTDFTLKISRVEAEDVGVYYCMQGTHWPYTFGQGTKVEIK	nM	0.077

Using the record for 38A6 (antibody, V domains shown, also called 780_46) VH: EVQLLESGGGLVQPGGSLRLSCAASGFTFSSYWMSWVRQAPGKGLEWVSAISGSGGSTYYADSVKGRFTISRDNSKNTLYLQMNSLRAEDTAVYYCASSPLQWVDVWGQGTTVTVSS VL: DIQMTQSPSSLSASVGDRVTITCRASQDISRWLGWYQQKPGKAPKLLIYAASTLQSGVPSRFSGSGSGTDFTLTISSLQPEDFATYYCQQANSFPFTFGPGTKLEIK , report its EC50. 0.15
